target: Hck (UniProt P08631); test: phosphorylation enrichment, bacterial display (enrichment ratio); higher = better substrate or ligand; peptides without Tyr show the background;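 note: 11-residue human phosphosite peptides and single-mutation variants displayed on the E. coli surface, counted by deep sequencing, each peptide's frequency after selection divided by its frequency in the unselected input library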;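 note: frequency after pTyr selection over input frequency; kinase dosed for 20-30% of maximal phosphorylation in three min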
Sequence (P08631 whole entry, looked up): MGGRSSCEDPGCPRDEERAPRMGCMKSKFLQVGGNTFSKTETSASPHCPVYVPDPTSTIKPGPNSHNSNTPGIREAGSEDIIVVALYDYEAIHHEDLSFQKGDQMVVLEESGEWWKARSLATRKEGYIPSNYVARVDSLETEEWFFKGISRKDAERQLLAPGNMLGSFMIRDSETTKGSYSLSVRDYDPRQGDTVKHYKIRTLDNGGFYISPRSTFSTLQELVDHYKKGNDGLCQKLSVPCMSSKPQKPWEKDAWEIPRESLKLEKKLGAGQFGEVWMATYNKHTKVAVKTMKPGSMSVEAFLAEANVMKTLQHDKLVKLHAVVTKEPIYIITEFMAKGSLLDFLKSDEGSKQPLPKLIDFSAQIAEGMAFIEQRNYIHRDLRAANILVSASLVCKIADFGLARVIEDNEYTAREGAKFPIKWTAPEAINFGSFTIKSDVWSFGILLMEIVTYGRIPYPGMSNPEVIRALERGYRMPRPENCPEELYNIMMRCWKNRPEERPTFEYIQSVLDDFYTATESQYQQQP
Each entry falls into one class according to its phosphorylation enrichment; the ranges are lowest: < 0.4; middle: ≥ 0.4 and < 0.7; highest: ≥ 0.7

Incoming: Kindly state the category for this sequence: IGSHAYGDQYR [IDH1_Y135_R132S]
Outgoing: lowest

Incoming: Kindly state the category for this sequence: KNNDGNIDFAE [MCFD2_Y135_Y135N_YF]
Outgoing: middle

Incoming: Kindly state the category for this sequence: LFEDRYLLGTS [ASS1_Y87_YF]
Outgoing: highest

Incoming: Kindly state the category for this sequence: KSSDVYVSFDF [SORL1_Y136_YF]
Outgoing: highest

Incoming: Kindly state the category for this sequence: TPGPNYRPGYN [USH2A_Y463]
Outgoing: lowest

Incoming: Kindly state the category for this sequence: TDECEYDELIV [TGM1_Y136_Y134C]
Outgoing: highest

Incoming: Kindly state the category for this sequence: NHFKRYNLCAE [PTEN_Y68_I67R_YF]
Outgoing: middle

Incoming: Kindly state the category for this sequence: GTFVIYVRFSG [FLNB_Y1687_G1691S_YF]
Outgoing: middle

Incoming: Kindly state the category for this sequence: PGAPAYCVLME [MYO5A_Y1245_R1246C]
Outgoing: highest

Incoming: Kindly state the category for this sequence: MGSFNYLGFAW [SPTLC2_Y178_R183W_YF]
Outgoing: middle

Incoming: Kindly state the category for this sequence: KDFETYQPFQN [CTNND2_Y1157_YF]
Outgoing: highest

Incoming: Kindly state the category for this sequence: DPADRYLIEQC [CDKL5_Y286_T288I]
Outgoing: middle

Incoming: Kindly state the category for this sequence: LKGQVYILGLE [ASS1_Y359_R363L]
Outgoing: highest

Incoming: Kindly state the category for this sequence: TISPYYCQSLF [CRYAA_Y48_R49C]
Outgoing: highest

Incoming: Kindly state the category for this sequence: SSQAHYRLSAF [ADAMTS9_Y100]
Outgoing: middle

Incoming: Kindly state the category for this sequence: LLILEYAKYGS [RET_Y806_V804L]
Outgoing: middle

Incoming: Kindly state the category for this sequence: GRIHSYRGHLW [VHL_Y112_R107G]
Outgoing: lowest

Incoming: Kindly state the category for this sequence: HLDRSYSYSYS [PEAR1_Y890_R885H]
Outgoing: middle

Incoming: Kindly state the category for this sequence: CEHRGSLFLAI [TEK_Y897_Y897S_YF]
Outgoing: middle

Incoming: Kindly state the category for this sequence: QFKGKYLAKHN [CASK_Y712_D710G_YF]
Outgoing: lowest

Incoming: Kindly state the category for this sequence: EWKNNYPRLRE [OPA1_Y582]
Outgoing: middle

Incoming: Kindly state the category for this sequence: RRIHSYRGRLW [VHL_Y112_H115R]
Outgoing: highest

Incoming: Kindly state the category for this sequence: YGGRDYSLDEF [MYOF_Y1705]
Outgoing: middle

Incoming: Kindly state the category for this sequence: EEKKKYFDTKI [CASP5_Y103_YF]
Outgoing: middle

Incoming: Kindly state the category for this sequence: PLTKVYVVEGS [ZMPSTE24_Y253]
Outgoing: middle

Incoming: Kindly state the category for this sequence: DLDFTYIYPNI [PTEN_Y27_L25F]
Outgoing: highest

Incoming: Kindly state the category for this sequence: TINPIYEHVGY [CHN1_Y143]
Outgoing: highest

Incoming: Kindly state the category for this sequence: QNTGDDFDLFG [PTPN11_Y62_Y62D_YF]
Outgoing: highest

Incoming: Kindly state the category for this sequence: TAGEPYHDIRF [BAP1_Y223]
Outgoing: middle

Incoming: Kindly state the category for this sequence: RLEKEYFDQHF [NPC1_Y394]
Outgoing: middle

Incoming: Kindly state the category for this sequence: ACEVLYNIVFM [NCF2_Y125_A128V]
Outgoing: highest

Incoming: Kindly state the category for this sequence: IDQDKYAVRFI [FLNA_Y2388]
Outgoing: middle

Incoming: Kindly state the category for this sequence: CSEEMYRLMLQ [RET_Y981]
Outgoing: middle

Incoming: Kindly state the category for this sequence: RKLASYRSCLL [DHX37_Y1080]
Outgoing: middle

Incoming: Kindly state the category for this sequence: FDGGCYEQLFV [MC4R_Y41_S36Y_YF]
Outgoing: highest

Incoming: Kindly state the category for this sequence: FLNSIYKCRDE [ROS1_Y2227_S2229C]
Outgoing: middle

Incoming: Kindly state the category for this sequence: YMKEPYIQSRF [HIPK4_Y175_V171M]
Outgoing: lowest

Incoming: Kindly state the category for this sequence: QTEAQYRFIYM [PTPN11_Y511]
Outgoing: middle

Incoming: Kindly state the category for this sequence: IKNFKYGIEEH [GJA1_Y137_K134N]
Outgoing: middle

Incoming: Kindly state the category for this sequence: ASNNPYFRDQA [RPGRIP1_Y846]
Outgoing: middle

Incoming: Kindly state the category for this sequence: TKAEKYVNKAK [PLCG1_Y991]
Outgoing: lowest

Incoming: Kindly state the category for this sequence: VYSTDCYRVGG [NTRK2_Y706_Y706C]
Outgoing: highest

Incoming: Kindly state the category for this sequence: FGRTFYNQANM [MCCC2_Y196_I200N]
Outgoing: middle

Incoming: Kindly state the category for this sequence: AASHRYDLGGL [QPRT_Y162]
Outgoing: lowest

Incoming: Kindly state the category for this sequence: VDTRAYLTSAT [MT-CO1_Y304_F305L]
Outgoing: lowest

Incoming: Kindly state the category for this sequence: YASALYGQRRS [FGF11_Y162_R163G]
Outgoing: highest

Incoming: Kindly state the category for this sequence: SNKLTYGTMVF [ACOX1_Y275]
Outgoing: highest

Incoming: Kindly state the category for this sequence: GDPTEYFITAI [IGSF22_Y501_S503I_YF]
Outgoing: middle

Incoming: Kindly state the category for this sequence: NCLRVYVAGRF [CRB1_Y711_E710V]
Outgoing: middle

Incoming: Kindly state the category for this sequence: SLNEVYTKNKT [MSH2_Y563_E562V]
Outgoing: lowest

Incoming: Kindly state the category for this sequence: IQKWEYVPLGP [FAH_Y244]
Outgoing: middle

Incoming: Kindly state the category for this sequence: NFYEYYVDDPP [GCHFR_Y48]
Outgoing: highest

Incoming: Kindly state the category for this sequence: EKMWTYMPSAE [GRIA4_Y695_R697P]
Outgoing: middle

Incoming: Kindly state the category for this sequence: CTTIHYNYMWN [TP53_Y234_C238W]
Outgoing: middle
